Ref: PubChem BioAssay (NCATS)

Tested on: GB4
Assay: qHTS profiling for inhibitors of Plasmodium falciparum proliferation (AID 504749); note: nearly all actives have a fitted effect of over 60% in size; note: potency is the fitted concentration of half-maximal effect
Conditions: P. falciparum in erythrocytes, SYBR Green DNA, 72 h; series mostly up to 28.7 µM
Procedure: NIH National Institute of Allergy and Infectious Diseases [NIAID] NIH Chemical Genomics Center [NCGC] […] Because mature erythrocytes lack DNA, only Plasmodium-derived DNA is detected. NCGC Assay Protocol Summary: The SYBR Green viability assay was adapted from a method described previously (Plouffe et al., 2008). […] The following morning, fluorescence intensity at 485(14) nm excitation and 535(25) nm emission wavelengths was measured on an EnVision (Perkin Elmer) plate reader. […]
Inconclusive results are not listed. The source made the active and inactive calls. Calls come from the whole dose curve; as a rule, active = well fitted inhibition curve with a large enough effect; inconclusive = small, poorly fitted or top-dose-only effect; inactive = flat fitted curve, though single readings scatter.

# compound, study.system, Potency
rows = [
    ("COc1ccc2cc3[n+](cc2c1OC)CCc1cc2c(cc1-3)OCO2", "GB4", "0.675 µM (active)"),
    ("CNCC[C@H](Oc1cccc2ccccc12)c1cccs1", "GB4", "12 µM (active)"),
    ("C1CCC(C(CC2CCCCN2)C2CCCCC2)CC1 (stereo not drawn)", "GB4", "9.53 µM (active)"),
    ("CCCc1nc(C)c2c(=O)[nH]c(-c3cc(S(=O)(=O)N4CCN(CC)CC4)ccc3OCC)nn12", "GB4", "inactive"),
    ("Cc1cccc(Nc2ccncc2S(=O)(=O)NC(=O)NC(C)C)c1", "GB4", "inactive"),
    ("Cc1ncc([N+](=O)[O-])n1CCO", "GB4", "inactive"),
    ("Cn1nnc2c(C(N)=O)ncn2c1=O", "GB4", "inactive"),
    ("Nc1ccc(S(=O)(=O)Nc2ccccn2)cc1", "GB4", "inactive"),
    ("COc1cc(NCc2ccc3nc(N)nc(N)c3c2C)cc(OC)c1OC", "GB4", "0.0015 µM (active)"),
    ("Oc1c(Cl)cc(Cl)c2cccnc12", "GB4", "12 µM (active)"),
    ("O=c1cc(O)c(Cl)c[nH]1", "GB4", "inactive"),
    ("COc1ncnc(NS(=O)(=O)c2ccc(N)cc2)c1OC", "GB4", "inactive"),
    ("CCOC(=O)c1ccc(C#Cc2ccc3c(c2)C(C)(C)CCS3)nc1", "GB4", "inactive"),
    ("CCn1cc(C(=O)O)c(=O)c2cc(F)c(N3CCN(C)CC3)cc21", "GB4", "inactive"),
    ("CC(N)C12CC3CC(CC(C3)C1)C2 (stereo not drawn)", "GB4", "6.75 µM (active)"),
    ("NC(=O)c1cccnc1", "GB4", "inactive"),
    ("CCC(C)(C)c1ccc(CC(C)CN2C[C@@H](C)O[C@@H](C)C2)cc1 (stereo partly drawn)", "GB4", "inactive"),
    ("CCOc1cc(N)c(Cl)cc1C(=O)NCC1CN(Cc2ccc(F)cc2)CCO1 (stereo not drawn)", "GB4", "12 µM (active)"),
]

====

tested on: MKL-2; test: qHTS assay to identify novel small-molecules to repurpose for Merkel cell carcinoma treatment (AID 1296009); details: MCC and control cell lines, CellTiter-Glo viability, 72 h; series mostly up to 46 µM; note: nearly all actives have a fitted effect of over 60% in size; note: potency is the fitted concentration of half-maximal effect
Inconclusive results are not listed. Active and inactive are the calls of the source. Calls come from the whole dose curve; as a rule, active = well fitted inhibition curve with a large enough effect; inconclusive = small, poorly fitted or top-dose-only effect; inactive = flat fitted curve, though single readings scatter.
value.kind: Potency

# compound, value.kind, reading
records = [
    ("CCC(C)(C)c1ccc(CC(C)CN2C[C@@H](C)O[C@@H](C)C2)cc1 (stereo not given in full)", "Potency", "inactive"),
    ("COc1ccc(C(=O)CC(=O)c2ccc(C(C)(C)C)cc2)cc1", "Potency", "935 nM (active)"),
    ("CC(C)(C)NC(=O)[C@H]1CC[C@H]2[C@@H]3CC[C@H]4NC(=O)C=C[C@]4(C)[C@H]3CC[C@]12C", "Potency", "inactive"),
    ("O=C(O)c1cccnc1", "Potency", "inactive"),
    ("C[C@@H]1CN(c2c(F)c(N)c3c(=O)c(C(=O)O)cn(C4CC4)c3c2F)C[C@H](C)N1", "Potency", "inactive"),
]
